tested on: Wild type; assay: S. aureus survival, RN4220 and DeltatarO strains – OD600, teichoic acid synthesis inhibitors, primary screen (AID 463173); details: S. aureus RN4220 wild type/DeltatarO growth, OD600, 18 h, hits give low values, screened at 18.75 µg/mL (by protocol)
Screen size: about 52,000 compounds; about 1,700 (3.3%) were called active. The full list was thinned out, with actives kept by preference.
Rule for this label: Met means survival is less than 50%; Not met means survival is at least 50%.

Some entries whose results are on file:
• COc1ccc(NC(=O)CSc2ccc(-c3cccs3)nn2)cc1 = Not met
• COc1ccc(Cn2c(SC)nc3ccccc32)cc1 = Not met
• COc1ccc(-c2noc(=O)n2Cc2ccccc2)cc1 = Not met
• COc1ccc(-c2nc3ccccc3n2Cc2ccc(C(C)C)cc2)cc1 = Met
• COc1ccc(OCCCCn2c(-c3ccc(Cl)cc3)nc3ccccc3c2=O)cc1 = Met

Please look at the following compound next.
Data request: Field: below-cutoff. Rule: recorded survival strictly less than 50%. Subject: CCc1ccc(OCCCn2c(-c3ccc(Cl)cc3)nc3ccccc3c2=O)cc1
Data returned: Not met

###

system: Wild type; assay: S. aureus survival, RN4220 and DeltatarO strains – OD600, teichoic acid synthesis inhibitors, primary screen (AID 463173); conditions: S. aureus RN4220 wild type/DeltatarO growth, OD600, 18 h, hits give low values, screened at 18.75 µg/mL (by protocol)
Screen size: about 52,000 compounds; about 1,700 (3.3%) were called active. The list comes from a sample in which actives are over-represented; it also holds close analogues and randomly drawn compounds.
outcomeMeasure: survival (%)
Hi! Could you send only the number? It should be in %, unit omitted.

* CCc1ccc(N(CC(=O)NCC2CCCO2)S(C)(=O)=O)cc1 (stereo unspecified) | 112
* CCCC(=O)Nc1ccc2c(C)cc(C)nc2n1 | 99
* O=C(COCc1cc(-c2cccs2)on1)Nc1ccc(OC(F)(F)F)cc1 | 124
* CCOc1ccccc1C(=O)N(Cc1cc(OC)c(OC)c(OC)c1)c1ccccn1 | 82
* CCCNC(=O)Cn1c(=O)c2cccn2c2cccnc21 | 89

Turning now to a further record.
Data request: State, in one line, measured survival of Cc1cccc(Cn2c(CN3CCC(C(=O)NCCc4ccccc4)CC3)cc3ccccc32)c1
Data returned: 128

###

tested on: Wild type; test: S. aureus survival, RN4220 and DeltatarO strains – OD600, teichoic acid synthesis inhibitors, primary screen (AID 463173); settings: S. aureus RN4220 wild type/DeltatarO growth, OD600, 18 h, hits give low values, screened at 18.75 µg/mL (by protocol)
Among all 52,000 compounds or so, about 1,700 (3.3%) were called active. The list comes from a sample in which actives are over-represented; it also holds close analogues and randomly drawn compounds.
outcomeMeasure: survival (%)
Numeric answer only, unit % assumed.

Data request: Please list survival recorded for the molecule Cc1ccc(Cn2cc(S(=O)(=O)c3cccc(C)c3)c(=O)c3cc(F)c(N4CCOCC4)cc32)cc1
Data returned: 82

Data request: Supply measured survival of Cc1cc(NC(=O)COCc2cc(-c3ccc(F)cc3)on2)ccc1Br in your reply.
Data returned: 82

Data request: # return recorded survival for entry CCOC(=O)c1[nH]c(C)c(CCC(=O)Nc2ccccc2OCC)c1C
Data returned: 84

###

test system: Wild type; assay: S. aureus survival, RN4220 and DeltatarO strains – OD600, teichoic acid synthesis inhibitors, primary screen (AID 463173); conditions: S. aureus RN4220 wild type/DeltatarO growth, OD600, 18 h, hits give low values, screened at 18.75 µg/mL (by protocol)
About 1,700 (3.3%) of roughly 52,000 compounds were called active. The full list was thinned out, with actives kept by preference.
Classify on survival using lower segment: < 60%; middle segment: ≥ 60% and < 80%; upper segment: ≥ 80%

Here's what some known entries look like.
- NC(=O)c1c(NC(=O)c2noc3c2CCCC3)sc2c1CCCC2: middle segment
- Cc1nc(-c2ccc(C)c(N3CCN(C(=O)Nc4ccc(Br)cc4)CC3)c2)no1: lower segment
- Cc1cccc(C)c1NCc1nnc(SCC(N)=O)n1-c1ccccc1: upper segment
- COc1ccc(C)cc1NC(=O)N1CCN(c2cc(-c3noc(C)n3)ccc2C)CC1: upper segment
- COC(=O)c1cc(S(=O)(=O)N2CCN(c3ccc(OC)cc3)CC2)c[nH]1: upper segment

Then there is this compound:
Data request: Sort into band: COc1cccc(CNC(=O)CCC(=O)N2CC3CCCN3c3ccccc32)c1 (stereo unspecified)
Data returned: middle segment

###

tested on: Wild type; assay: S. aureus survival, RN4220 and DeltatarO strains – OD600, teichoic acid synthesis inhibitors, primary screen (AID 463173); conditions: S. aureus RN4220 wild type/DeltatarO growth, OD600, 18 h, hits give low values, screened at 18.75 µg/mL (by protocol)
Out of some 52,000 compounds screened, about 1,700 (3.3%) were called active. For the sample, actives were picked, then their nearest neighbours and some compounds at random.
hey, just use y if measured survival is less than 80%, otherwise n

Take a look at these entries with their results.
- CSc1nc(C)cc(Nc2cccc(C(=O)O)c2)n1: n
- Cc1nc(N2CCOCC2)c2c(C(=O)NCCc3ccccc3)c(C)oc2n1: y
- CCc1ccc(CNC(=O)c2c(C)oc3ncnc(N4CCOCC4)c23)cc1: n
- COc1ccc(C(=O)Nc2ccc(N3CCN(c4ccccc4)CC3)c(C(=O)O)c2)cc1: n
- COc1ccc(NC(=O)c2ccc(-c3nc(COc4ccccc4)c(C)o3)cc2)cc1: n
- COC(=O)CCN(C(=O)c1c(C)oc2ncnc(N3CCOCC3)c12)c1ccccc1: y
- COc1cccc(Nc2cc(-c3ccccc3)nc(C)n2)c1: y
- CCCn1c(=O)sc2cc(NC(=O)c3ccccc3Cl)ccc21: y
- COc1ccc(NC(=O)CN(c2ccc(C)cc2)S(=O)(=O)c2cccs2)cc1: n
- COCCCNC(=O)c1cc(-c2cccnc2)nc2ccccc12: n

Data request: survival under 80%? Item: COc1ccc(OCc2nc3ccccc3n2Cc2ccccc2Cl)cc1
Data returned: y

Data request: Threshold test, survival < 80%: CSc1nc(Nc2ccc(F)cc2)cc(-c2ccccc2)n1
Data returned: y

Data request: Criterion: survival strictly below 80%. Is it met by Cc1cccc(C(=O)Nc2ccc(N3CCN(c4ccc(F)cc4)CC3)c(C(=O)O)c2)c1 ?
Data returned: y

Data request: Lab log: compare recorded survival with 80%; is it strictly lower for Cc1nc(N2CCCC2)c2c(C(=O)Nc3cccc(Cl)c3)c(C)oc2n1 ?
Data returned: y

Data request: A record lists Cc1oc2ncnc(N3CCOCC3)c2c1C(=O)NCc1ccc(Cl)cc1 . Is its survival below 80%?
Data returned: y

Data request: # check: survival < 80% for Cc1oc2ncnc(N3CCOCC3)c2c1C(=O)NCCc1ccccc1
Data returned: n

Data request: hey, is survival for CCc1ccc(-c2nc3c(c(SCc4ccccc4)n2)Cc2c(CO)cnc(C)c2O3)cc1 lower than 80% or not?
Data returned: n

Data request: I'd appreciate it if you could check whether COc1ccc(CCNC(=O)CCc2c(C)c3cc4c(C)coc4c(C)c3oc2=O)cc1OC has survival smaller than 80%.
Data returned: n

###

test system: Wild type; test: S. aureus survival, RN4220 and DeltatarO strains – OD600, teichoic acid synthesis inhibitors, primary screen (AID 463173); conditions: S. aureus RN4220 wild type/DeltatarO growth, OD600, 18 h, screened at 18.75 µg/mL (by protocol)
Hit rate of the full screen: of about 52,000 compounds, about 1,700 (3.3%) were called active. No stated cut-off is given here; in the data, active means survival mostly below about 52% (no sharp cut-off); inactive means mostly above about 56%. Shown is part of a subset that was picked to be rich in actives.
Assign a class; possible classes are active, inactive

- CCOc1ccc(NC(=O)C(CC(C)C)N2Cc3ccccc3C2=O)cc1 (configuration not stated): inactive

Data request: Outcome? Cc1ccc(NC(=O)[C@H](Cc2ccccc2)N2Cc3ccccc3C2=O)cc1F
Data returned: inactive

Data request: Short answer needed: outcome of this test for Cc1cc(C)cc(NC(=O)C(C)N2Cc3ccccc3C2=O)c1 (configuration not stated) ?
Data returned: inactive

Data request: Assay outcome for Cc1ccc2c(c1)c1c(c(=O)n(-c3ccccc3C)c(=O)n1CC(=O)NCC1CCCO1)n2C (configuration not stated) : what was it?
Data returned: inactive

###

system: Wild type; experiment: S. aureus survival, RN4220 and DeltatarO strains – OD600, teichoic acid synthesis inhibitors, primary screen (AID 463173); details: S. aureus RN4220 wild type/DeltatarO growth, OD600, 18 h, hits give low values, screened at 18.75 µg/mL (by protocol)
Screen size: about 52,000 compounds; about 1,700 (3.3%) were called active. This excerpt belongs to a sample that is enriched for actives.
outcomeMeasure: survival (%)
Value expressed in %; do not type the unit.

// solved cases for survival follow
- CCOc1ccccc1NC(=O)N(Cc1ccc(C)o1)C1CCN(C(C)=O)CC1: 75
- Cc1ccc(S(=O)(=O)C2(C(=O)Nc3ccc(C)c(Cl)c3)CC2)cc1: 4
- CCn1cc2nc(SCc3ccc(F)cc3)n(CCc3ccccc3)c(=O)c2n1: 77

Then this compound:
Data request: Annotate the compound COc1ccccc1C(=O)Nc1c(C(=O)N2CCN(c3ccc(F)cc3)CC2)oc2ccccc12 with its measured survival.
Data returned: -2

All figures here come from PubChem BioAssay AID463173.
